Reported pKi by item:
Target: PCSK9 (Homo sapiens)
Construct: Biotinylated PCSK9 was obtained commercially; purchased
Sequence (Q8NBP7 153-692): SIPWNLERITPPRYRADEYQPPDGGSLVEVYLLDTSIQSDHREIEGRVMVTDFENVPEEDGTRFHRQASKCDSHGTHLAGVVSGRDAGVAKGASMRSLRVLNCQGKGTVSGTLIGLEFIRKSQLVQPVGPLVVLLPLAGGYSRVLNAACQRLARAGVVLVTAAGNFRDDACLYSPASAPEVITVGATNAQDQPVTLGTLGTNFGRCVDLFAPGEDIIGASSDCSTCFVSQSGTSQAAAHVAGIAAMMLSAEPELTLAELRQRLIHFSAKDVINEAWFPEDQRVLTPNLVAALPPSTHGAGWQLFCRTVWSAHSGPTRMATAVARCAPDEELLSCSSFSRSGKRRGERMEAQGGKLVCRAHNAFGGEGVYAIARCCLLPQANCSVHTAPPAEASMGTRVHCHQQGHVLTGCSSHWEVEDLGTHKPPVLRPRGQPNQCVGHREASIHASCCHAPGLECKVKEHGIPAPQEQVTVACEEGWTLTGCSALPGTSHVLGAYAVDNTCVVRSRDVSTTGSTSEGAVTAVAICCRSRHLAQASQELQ
Assay: PCSK9 Alexa FRET Plus TR-FRET assay (displacement of AlexaFluor647 tagged cyclic peptide Reagent B)
Assay type: binding
Settings: 0.5 nM biotinylated PCSK9, 960 nM AF cyclic peptide Reagent B; Ki calculated from IC50 and KD of AF peptide; read-out: Ki Plus
Description: The following is a description of the assays used to determine activity of compounds of the invention, and any comparator compounds reported, toward PCSK9 antagonism. Biotinylated PCSK9 was obtained commercially. A solution containing 1 nM biotinylated PCSK9+2.5 nM Lance Streptavidin Europium (Strep-Eu) is made in 50 mM HEPES pH 7.4, 0.15 M NaCl, 5 mM CaCl2, 0.01% BSA, and 0.01% Surfactant P20. […] IC50 values are determined by fitting data to a sigmoidal dose-response curve using nonlinear regression. […]
The quantity pKi is defined as the negative base-10 logarithm of the molar concentration.

Look over these answered cases.
# compound, value reported
rows = [
    ("COc1ccc(C[C@@H]2NC(=O)[C@H]([C@@H](C)O)NC(=O)[C@@H]3[C@@H]4CCN3C(=O)[C@@H]3Cc5cn(c6ccc(F)cc56)Cc5cn(nn5)Cc5cc(ccc5CNC(=O)CCC(=O)N[C@@H](C)C(=O)N[C@H](CNC(=O)CCOCCOCC[N+](C)(C)C)C(=O)N[C@@H](Cc5cccc(c5)CNC(=O)CO4)C(=O)N3)CCNC(=O)[C@]3(C)CCCN3C2=O)cc1", 10.80),
    ("COc1ccc(C[C@@H]2NC(=O)[C@H]([C@@H](C)O)NC(=O)[C@@H]3[C@@H]4CCN3C(=O)[C@@H]3Cc5cn(c6ccc(F)cc56)Cc5cn(nn5)CCN(Cc5ccc(cc5)CCNC(=O)[C@]5(C)CCCN5C2=O)C(=O)CCC(=O)N[C@@H](CNC(=O)CCOCCOCC[N+](C)(C)C)C(=O)N[C@H](C)C(=O)N[C@@H](Cc2cccc(c2)CNC(=O)CO4)C(=O)N3)cc1", 9.84),
]

Input: Given the compound COc1ccc(C[C@@H]2NC(=O)[C@H]([C@@H](C)O)NC(=O)[C@@H]3[C@@H]4CCN3C(=O)[C@@H]3Cc5cn(c6ccc(F)cc56)CCCCCCN(Cc5ccc(cc5)CCNC(=O)[C@]5(C)CCCN5C2=O)C(=O)CCC(=O)N[C@@H](C)C(=O)N[C@H](CNC(=O)CCC(=O)NC2OC(CO)C(O)C(O)C2O)C(=O)N[C@@H](Cc2cccc(c2)CNC(=O)CO4)C(=O)N3)cc1 (stereo partly drawn) , what is its reported pKi?
Output: 11.03
